tested on: CEM cells HIV-1 protection, formazan growth assay; experiment: NCI AIDS Antiviral Assay
pEC50: −log10 of the molar value.
recordedMetric: pEC50

See these solved cases before continuing.
compound | pEC50
CCOC(=O)/C(=C/c1ccc(N(C)C)cc1)C(=O)c1ccccc1 | < 5.07
C[Si](C)(C)c1ccc(CC2(Cc3ccc([Si](C)(C)C)cc3)CCNC2)cc1 | < 5.30
Cc1ccccc1NC(=O)/C(C#N)=N\Nc1nc[nH]c1C(N)=O | < 3.70
COC(=O)C(=O)C(CC(=O)Nc1ccc(C)cc1)C(=O)OC (stereo not drawn) | < 3.51
CN(CC#N)[C@H]1CCC[C@]1(O)C#C[Si](C)(C)c1ccccc1 | < 4.78

**Q:** # pEC50 lookup, item `COc1cc(OCc2ccc3nc(OC)c(OC)nc3c2)cc(OC)c1OC`
**A:** < 3.70

**Q:** Check COc1cccc(C2CCCC(C#N)C2=N)c1OC (stereo not drawn) too.
**A:** < 3.70

**Q:** Would you kindly repeat that for CCOC(=O)C1CN(C2CC2)CCC1=O (stereo not drawn) ?
**A:** < 3.70
